Where do these numbers come from? They come from PubChem BioAssay AID1963836.

system: 857933-349-R-J2-PDC complex spheroid viability; experiment: Anticancer human tumor 857933-349-R-J2-PDC patient-derived colon adenocarcinoma cell line growth inhibition [POLQ]; settings: second compound 3.16 µM; first compound 0.001 µM; active compounds read low
Measured viability, T/C of individual entries
parameter: viability, T/C (%)

[[record]]
compound = "Cn1ncnc1[C@H]1c2n[nH]c(=O)c3cc(F)cc(c23)N[C@@H]1c1ccc(F)cc1 + COC1C(OC(N)=O)C(O)C(Oc2ccc3c(O)c(NC(=O)c4ccc(O)c(CC=C(C)C)c4)c(=O)oc3c2C)OC1(C)C"
value = 100

[[record]]
compound = "CC[C@@]1(O)C(=O)OCc2c1cc1n(c2=O)Cc2cc3c(CN(C)C)c(O)ccc3nc2-1 + Cc1cccc(N(C)C(=O)C2C(O)CCN2c2nc(C)cc(C(F)(F)F)c2C#N)c1"
value = 79.3

[[record]]
compound = "Cn1ncnc1[C@H]1c2n[nH]c(=O)c3cc(F)cc(c23)N[C@@H]1c1ccc(F)cc1 + Nc1ccc(C#CCN(C(=O)Cc2ncc(C(F)(F)F)cc2C(F)(F)F)c2ccc(F)cc2)nn1"
value = 80.2


* * *

system: 857933-349-R-J2-PDC complex spheroid viability; test: Anticancer human tumor 857933-349-R-J2-PDC cell line growth inhibition [POLQ]; settings: second compound 0.0316 µM; first compound 0.1 µM; active compounds read low;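 also: spheroids exposed to compounds for seven days before readout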
parameter: viability, T/C (%)

[[record]]
compound = "CC(C)n1c(=O)n(C)c2cnc3cc(F)c(-c4ccc(OCCCN5CCCCC5)nc4)cc3c21 + Nc1ccc(C#CCN(C(=O)Cc2ncc(C(F)(F)F)cc2C(F)(F)F)c2ccc(F)cc2)nn1"
value = 89

[[record]]
compound = "CCc1c2c(nc3ccc(O)cc13)-c1cc3c(c(=O)n1C2)COC(=O)[C@]3(O)CC + Cc1cccc(N(C)C(=O)C2C(O)CCN2c2nc(C)cc(C(F)(F)F)c2C#N)c1"
value = 20

[[record]]
compound = "O=C(c1cc(Cc2n[nH]c(=O)c3ccccc23)ccc1F)N1CCN(C(=O)C2CC2)CC1 + COC1C(OC(N)=O)C(O)C(Oc2ccc3c(O)c(NC(=O)c4ccc(O)c(CC=C(C)C)c4)c(=O)oc3c2C)OC1(C)C"
value = 126

[[record]]
compound = "Nc1ccn(C2OC(CO)C(O)C2(F)F)c(=O)n1 (stereo not given) + Nc1ccc(C#CCN(C(=O)Cc2ncc(C(F)(F)F)cc2C(F)(F)F)c2ccc(F)cc2)nn1"
value = 46.7

[[record]]
compound = "CCc1cc2c(N3CCc4c(cc(Cn5ccnc5)cc4-c4cn(C)nc4C(F)(F)F)C3=O)cc(C)nc2c(OC)n1 + Nc1ccc(C#CCN(C(=O)Cc2ncc(C(F)(F)F)cc2C(F)(F)F)c2ccc(F)cc2)nn1"
value = 92.8


* * *

Measured viability, T/C of individual entries
Tested on: 857933-349-R-J2-PDC complex spheroid viability
Experiment: Anticancer human tumor 857933-349-R-J2-PDC cell line growth inhibition [POLQ];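 also: spheroids exposed to compounds for seven days before readout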
Conditions: second compound 3.16 µM; first compound 0.00316 µM; active compounds read low
Method: Multicellular complex tumor spheroid response to Polymerase (POL) inhibitors (novobiocin, ART-558, RP6685) in combination with a variety of drugs and investigational agents in selected tumor cell lines The POL inhibitors (novobiocin, ART-558, and RP6685) were evaluated both individually and in combination with standard of care and investigational anticancer small molecules within a complex spheroid model of solid tumors. . […]
parameter: viability, T/C (%)

[[record]]
compound = "CC[C@@]1(O)C(=O)OCc2c1cc1n(c2=O)Cc2cc3c(CN(C)C)c(O)ccc3nc2-1 + Cc1cccc(N(C)C(=O)C2C(O)CCN2c2nc(C)cc(C(F)(F)F)c2C#N)c1"
value = 77.9

[[record]]
compound = "CCc1c2c(nc3ccc(O)cc13)-c1cc3c(c(=O)n1C2)COC(=O)[C@]3(O)CC + Nc1ccc(C#CCN(C(=O)Cc2ncc(C(F)(F)F)cc2C(F)(F)F)c2ccc(F)cc2)nn1"
value = 66.2

[[record]]
compound = "CC[C@@]1(O)C(=O)OCc2c1cc1n(c2=O)Cc2cc3c(CN(C)C)c(O)ccc3nc2-1 + Nc1ccc(C#CCN(C(=O)Cc2ncc(C(F)(F)F)cc2C(F)(F)F)c2ccc(F)cc2)nn1"
value = 92.1

